apparent KD of MS2 coat protein reference
# System: MS2 coat protein
# ASSAY_TEXT: apparent KD of MS2 coat protein; designed switch direction (-1 OFF switch, 1 ON switch): -1; higher = weaker reporter binding
# EXPERIMENTAL_SETUP: input ligand: none
Numeric only. Scale: nM

INSERT INTO assay_data (sequence_entry, recorded_value) VALUES
  ('CGUUCGCGAGGAUAUGCAUUCGAGUCCACUACGUGUCUGGGACUUGAGGAUCACCCAAGUAGAAGGCGCCUCCA [salish99_ex2_r4_650] (Eterna round: R97, puzzle: Exclusion 2)', 130),
  ('GUUGUUUAUGUAGGAUAUGCCUGGCGUGCCUUUGCAGAAGGACAUGAGGAUCACCCAUGUAACAUGAGGCUCACCCAUGUCGCG [salish99_ExNG1_r04_109] (Eterna round: R96, puzzle: Exclusion NG 1)', 277);

Provide measured apparent KD of MS2 coat protein value, entry: UGUACGCGAGGAUAUACAUGAGGAUCACCCAUGUCAUAUGAAAUGUAAUGAGUAGCGGGUAGAAGGCGCUUUUG [Eternabot (L2) Solution 26] (Eterna round: R97, puzzle: Exclusion 3)
31.3

Provide measured apparent KD of MS2 coat protein value, entry: CGUGUGUCAGGAUAUACGUUGGGCCAGCAUGGCUAAAGACAGUAGAAGGGACAUGAGGAUCACCCAUGUGGAGU [Eternabot (L2) Solution 4] (Eterna round: R97, puzzle: Exclusion 4)
78.9

Provide measured apparent KD of MS2 coat protein value, entry: ACAAGCUUGUAAUGAUAGAACAUGAGGAUCACCCAUGUAAAUGGAAGAACCAAUUGGAUAAGAUAAACUCGUCUUAU [JR_STOV1_Sub003] (Eterna round: R97, puzzle: Sensor, turn-off variant 1)
127

Provide measured apparent KD of MS2 coat protein value, entry: AUACACUAGCGAGGAUAUUGGAAAGGAAGUGUACAAGAAGGCGCCCGUGGAAGGGUGAAACAUGAGGAUCACCCAUGUGAAUAA [PowerStrip EXNG 1.29] (Eterna round: R96, puzzle: Exclusion NG 1)
66.1

Provide measured apparent KD of MS2 coat protein value, entry: AGAUCACAUGAGGAUCACCCAUGUGAGGAUAUAGACUGAAGAGCUUCGGCUCUUCAGUCUAGAAGGCACUAUGA [EX1 #45] (Eterna round: R97, puzzle: Exclusion 1)
25.9
